- TARGET OR SYSTEM: central benzodiazepine receptor (CBR)
- Construct: IC50 CBR; other: [11C]flumazenil
- PROCEDURE DETAILS: Affinity to CBR using [11C]flumazenil, a selective ligand for CBR
- TEST SETTINGS: [11C]flumazenil
- Experimental: On the other hand, affinity of FMDAA1106 and FEDAA1106 to central benzodiazepine receptor (CBR) was determined (Table 1) using [^11C]flumazenil which is a selective ligand for CBR. As a result, affinity of FEDAA1106 and FMDAA1106 to CBR was not less than 10 μM and was about 10,000-fold weaker than the affinity of PBR. […] Incidentally, partition coefficients (log P) of the two ligands were measured by an octanol/water (pH 7.4) partition method.
pIC50: −log10 of the molar value.
Reported pIC50 is given for each of the following molecules.
PROPERTY: pIC50

> print(dat)
                                   molecule  property  test.result
1  CCC(C)N(C)C(=O)c1cc2ccccc2c(-c2ccccc2Cl)n1 (stereo not drawn) [PK11195, reference compound]     pIC50       < 5.00
2  COc1ccc(OCCF)c(CN(C(C)=O)c2cc(F)ccc2Oc2ccccc2)c1 [FEDAA1106]     pIC50       < 5.00
3  COc1ccc(OC)c(CN(C(C)=O)c2cc(F)ccc2Oc2ccccc2)c1 [DAA1106, reference compound]     pIC50       < 5.00

====

- PROCEDURE DETAILS: Partition coefficient (log P) by octanol/water (pH 7.4) partition method
- Format: physicochemical
PROPERTY: logP

> print(dat)
                                   compound  test.result
1  COc1ccc(OCCF)c(CN(C(C)=O)c2cc(F)ccc2Oc2ccccc2)c1 [FEDAA1106]         3.81
2  COc1ccc(OC)c(CN(C(C)=O)c2cc(F)ccc2Oc2ccccc2)c1 [DAA1106, reference compound]         3.65
